The measured values listed here are drawn from the supplement of paper PMC10567573.

B1: P2RY14 (parent)
chain: KLLSVIVWMLMLLLAVPNIILTNQ

Variants of: B1
assayRemarks: protein stability index of a GFP-peptide fusion (GPS, HEK-293T) (PSI 1-6); higher = more stable;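 note: lentivirally expressed fusions sorted by FACS into six bins by GFP to DsRed ratio, PSI derived from sequencing read proportions per bin multiplied by bin number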
testContext: c terminus: a fixed tail appended
readoutKind: protein stability index

INSERT INTO results (var, readoutkind, valueobserved) VALUES
  ('L21D', 'protein stability index', 2.99),
  ('W8I', 'protein stability index', 3.03),
  ('M11H', 'protein stability index', 3);
